# Test target: T1, KicGAS (Kaposi sarcoma-associated herpesvirus …, UniProt Q2HR80 1-131)
# T1 sequence: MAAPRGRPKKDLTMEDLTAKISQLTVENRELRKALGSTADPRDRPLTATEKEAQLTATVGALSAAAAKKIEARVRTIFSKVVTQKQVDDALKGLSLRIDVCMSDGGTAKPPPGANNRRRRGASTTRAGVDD
# Procedure summary: fluorescence polarization; Hill n 2.31; EMSA: 20 mM Tris-HCl pH 7.4, 150 mM NaCl, 10% glycerol, on ice, 20 nM FAM-DNA, gel at 4 C; FP: 400 pg/ul FAM-DNA, buffer and temperature not stated; Hill fits
# Test conditions: protein: recombinant; tags: Avi-His6-SUMO removed (tag-free); label: 5' FAM sense strand; blunt
Measured attribute: pKd
Answers are plain numbers, as −log10 of the molar value.

Query: pKd; subject: 30% GC (dsDNA) DNA 1: ATATCGCTATAGATATCATC DNA 2: GATGATATCTATAGCGATAT
5.97

Origin of measurements: paper PMC8450086
